system: RAW-Dual (murine macrophage reporter line); assay: IRF reporter (Lucia luciferase) activity fold change vs agonist alone; higher = enhanced IRF activity; settings: modulator concentration 10 µM; agonist: 3'3'-cGAMP 10 ug/mL
Decide using IRF reporter: a value greater than or equal to 0.9 is met, a smaller one is not met.

Example cases with answers are listed next.
COMPOUND | GROUP_LABEL
CCOC(=O)c1ccc(-c2ccc(C=C(C#N)C(=O)Nc3ccc(F)cc3)o2)cc1 | met
COc1ccc(Nc2nc(N3CCCCC3)c3cnn(C)c3n2)cc1 | not met
CCN(CC)CCOC(=O)C(Cc1cccc2ccccc12)CC1CCCO1.O=C(O)C(=O)O (stereo not given) | not met
CC(C)C1=CC2=CCC3C(C)(C(=O)O)CCCC3(C)C2CC1 (stereo not given) | met
Clc1ccc(Cn2c(CN3CCCC3)nc3ccccc32)cc1 | not met
CCOc1ccccc1NC(=O)Nc1ccc2c(c1)CCC(=O)N2C | not met

*Q* Quick check: does COc1ccc(N2C(=O)C(=Cc3ccc([N+](=O)[O-])s3)SC2=S)cc1 have IRF reporter greater than or equal to 0.9?
*A* not met

*Q* Quick check: does Cc1c(C)n2c3c(=O)n(CC=Cc4ccccc4)c(=O)n(C)c3nc2n1CCOCCO have IRF reporter greater than or equal to 0.9?
*A* met

*Q* Quick check: does CN1CCc2c(sc3[nH]c(=S)n(CCc4ccccc4)c(=O)c23)C1 have IRF reporter greater than or equal to 0.9?
*A* not met

*Q* Quick check: does Cc1ccc(CN2CCN(N=Cc3c4ccccc4cc4ccccc34)CC2)cc1 have IRF reporter greater than or equal to 0.9?
*A* not met

*Q* Quick check: does Cc1ccc(C=CC(=O)O)cc1S(=O)(=O)NCCO have IRF reporter greater than or equal to 0.9?
*A* met

*Q* Quick check: does NC(=O)CSc1nc(O)cc(=O)n1-c1ccccc1F have IRF reporter greater than or equal to 0.9?
*A* met

*Q* Quick check: does COc1ccc(OC)c(C2CC(c3ccc(Cl)cc3)=NN2S(C)(=O)=O)c1 (stereo not given) have IRF reporter greater than or equal to 0.9?
*A* not met
